Tested on: 786-0 renal
methodSummary: NCI tumour cell line growth inhibition, 48 h; in the data active = GI50 below about 0.43 µM; inactive = the rest
Write down one outcome, taken from active, inactive

compound	studyTarget	classAssignment
COc1c(OCCCN2CCOCC2)ccc2c3n(c(=NC(=O)c4cnc(N)nc4)nc12)CCN3	786-0 renal	active
Ic1ccc2[nH]cc(SSc3c[nH]c4ccc(I)cc34)c2c1	786-0 renal	inactive
Nc1nc(-c2cccc3ccccc23)cc2ccccc12	786-0 renal	inactive
C=C(C)[C@@H]1CC[C@]2(CNCCO)CC[C@]3(C)[C@H](CC[C@@H]4[C@@]5(C)CCC(N)[C@@](C)(CO)[C@@H]5CC[C@]43C)[C@@H]12 (some centres not stated)	786-0 renal	inactive

// query Identify the outcome logged in this assay for the compound shown: `CC(=O)Nc1ccc(-c2csc(Nc3ccc(-c4csc(-c5ccccc5)n4)cc3)n2)cc1`
// result inactive

// query Identify the outcome logged in this assay for the compound shown: `COc1cc(-n2cncc2-c2ccc3ccccc3c2)cc(OC)c1OC`
// result active

// query Identify the outcome logged in this assay for the compound shown: `CCOC(=O)c1ccc2c(c1)c1c(C)c3ccncc3c(C)c1n2C`
// result inactive

The measurements presented in this section are drawn from PubChem BioAssay (NCI).
